system: E. coli DY-1; experiment: MIC by agar dilution, E. coli DY-1; type: cell-based; conditions: Escherichia coli, DY1, 17 h; E. coli DY-1; agar dilution, Mueller-Hinton agar; read-out: Minimal Inhibitory Concentration (MIC)
endpoint-name: MIC (µg/mL)
# output: bare number, implied unit µg/mL

Recorded result, CO/N=C(\C(=O)N[C@@H]1C(=O)N2C(C(=O)[O-])=C(C[n+]3ccn4cccc4c3)CS[C@H]12)c1nc(N)sc1Cl , MIC: 0.012

Recorded result, CC(C)(ON=C(C(=O)NC1C(=O)N2C(C(=O)[O-])=C(C[n+]3ccn4c(CO)ccc4c3)CSC12)c1csc(N)n1)C(=O)O (stereo not shown) , MIC: 0.78

---

Reported MIC values, Staph. aureus C-5216.
Write the numeric value and append its unit.

Recorded result, CON=C(C(=O)NC1C(=O)N2C(C(=O)[O-])=C(C[n+]3ccn4c(SCCO)ccc4c3)CSC12)c1csc(N)n1 (stereo not shown) , MIC: 0.78 µg/mL

Recorded result, CO/N=C(\C(=O)N[C@@H]1C(=O)N2C(C(=O)[O-])=C(C[n+]3ccn4ccc(CO)c4c3)CS[C@H]12)c1nc(N)sc1Cl , MIC: 1.56 µg/mL

Recorded result, Nc1nc(C(=NOCC(=O)O)C(=O)NC2C(=O)N3C(C(=O)[O-])=C(C[n+]4ccn5c(CO)ccc5c4)CSC23)cs1 (stereo not shown) , MIC: 12.5 µg/mL

Recorded result, CCO/N=C(\C(=O)N[C@@H]1C(=O)N2C(C(=O)[O-])=C(C[n+]3cc(CC)n4cccc4c3)CS[C@H]12)c1csc(N)n1 , MIC: 1.56 µg/mL

Recorded result, CO/N=C(\C(=O)N[C@@H]1C(=O)N2C(C(=O)[O-])=C(C[n+]3ccn4c(CO)ccc4c3)CS[C@H]12)c1nc(N)sc1Cl , MIC: 0.78 µg/mL

Recorded result, CCON=C(C(=O)NC1C(=O)N2C(C(=O)[O-])=C(C[n+]3ccn4cccc4c3)CSC12)c1csc(N)n1 (stereo not shown) , MIC: 0.39 µg/mL

Recorded result, CCON=C(C(=O)NC1C(=O)N2C(C(=O)[O-])=C(C[n+]3ccn4c(C(N)=O)ccc4c3)CSC12)c1csc(N)n1 (stereo not shown) , MIC: 1.56 µg/mL

---

test system: M. morganii DY-1; assay: MIC by agar dilution, M. morganii DY-1; assay type: cell-based; details: Morganella morganii, DY1, 17 h; M. morganii DY-1; agar dilution, Mueller-Hinton agar; read-out: Minimal Inhibitory Concentration (MIC)
Hi there, I'd appreciate the recorded MIC for every entry that follows.
# output: bare number, implied unit µg/mL

Recorded result, CO/N=C(\C(=O)N[C@@H]1C(=O)N2C(C(=O)[O-])=C(C[n+]3ccn4c(C(C)C)cc(C(C)C)c4c3)CS[C@H]12)c1csc(N)n1 , MIC: 1.56

Recorded result, CCO/N=C(\C(=O)N[C@@H]1C(=O)N2C(C(=O)[O-])=C(C[n+]3ccn4c(Br)ccc4c3C)CS[C@H]12)c1csc(N)n1 , MIC: 0.2

---

Reported log10 MIC values, Staph. aureus C-5216.
Short version: log10 scale, MIC, µg/mL.

Recorded result, Nc1nc(C(=NOCF)C(=O)NC2C(=O)N3C(C(=O)[O-])=C(C[n+]4ccn5c(SCCO)ccc5c4)CSC23)cs1 (centres unmarked) [Ex. 10] , log10 MIC: -0.11

Recorded result, CCON=C(C(=O)NC1C(=O)N2C(C(=O)[O-])=C(C[n+]3ccn4c(SCCN)ccc4c3)CSC12)c1csc(N)n1 (centres unmarked) [Ex. 28] , log10 MIC: -0.11

Recorded result, CCON=C(C(=O)NC1C(=O)N2C(C(=O)[O-])=C(C[n+]3ccn4c(C(C)=O)ccc4c3)CSC12)c1csc(N)n1 (centres unmarked) [Ex. 19] , log10 MIC: 0.19

Recorded result, CC(C)(ON=C(C(=O)NC1C(=O)N2C(C(=O)[O-])=C(C[n+]3ccn4c(CO)ccc4c3)CSC12)c1csc(N)n1)C(=O)O (centres unmarked) [Ex. 24] , log10 MIC: 0.80

Recorded result, CO/N=C(\C(=O)N[C@@H]1C(=O)N2C(C(=O)[O-])=C(C[n+]3ccn4c(C#N)ccc4c3C)CS[C@H]12)c1csc(N)n1 [Ex. 43] , log10 MIC: -0.11

Recorded result, CCc1c[n+](CC2=C(C(=O)[O-])N3C(=O)[C@@H](NC(=O)/C(=N\OC)c4csc(N)n4)[C@H]3SC2)cc2cccn12 [Ex. 37] , log10 MIC: -0.11

Recorded result, Nc1nc(/C(=N/OCF)C(=O)N[C@@H]2C(=O)N3C(C(=O)[O-])=C(C[n+]4ccn5ccc(CO)c5c4)CS[C@H]23)cs1 [Ex. 32] , log10 MIC: 0.19

Recorded result, CCO/N=C(\C(=O)N[C@@H]1C(=O)N2C(C(=O)[O-])=C(C[n+]3ccn4c(C(C)=O)cc(Cl)c4c3)CS[C@H]12)c1csc(N)n1 [Ex. 35] , log10 MIC: 0.19

Recorded result, CO/N=C(\C(=O)N[C@@H]1C(=O)N2C(C(=O)[O-])=C(C[n+]3ccn4c(Cl)ccc4c3C)CS[C@H]12)c1csc(N)n1 [Ex. 45] , log10 MIC: -0.11

Recorded result, CO/N=C(\C(=O)N[C@@H]1C(=O)N2C(C(=O)[O-])=C(C[n+]3ccn4ccc(CO)c4c3)CS[C@H]12)c1nsc(N)n1 [Ex. 55] , log10 MIC: 0.50

Recorded result, CO/N=C(\C(=O)N[C@@H]1C(=O)N2C(C(=O)[O-])=C(C[n+]3ccn4c(SCCO)ccc4c3)CS[C@H]12)c1nsc(N)n1 [Ex. 53] , log10 MIC: 0.50

Recorded result, CO/N=C(\C(=O)N[C@@H]1C(=O)N2C(C(=O)[O-])=C(C[n+]3ccn4cccc4c3)CS[C@H]12)c1nsc(N)n1 [Ex. 48] , log10 MIC: -0.11

Recorded result, CON=C(C(=O)NC1C(=O)N2C(C(=O)[O-])=C(C[n+]3ccn4c([N+](=O)[O-])ccc4c3)CSC12)c1csc(N)n1 (centres unmarked) [Ex. 14] , log10 MIC: 0.19

Recorded result, CCON=C(C(=O)NC1C(=O)N2C(C(=O)[O-])=C(C[n+]3ccn4c(C=O)ccc4c3)CSC12)c1csc(N)n1 (centres unmarked) [Ex. 26] , log10 MIC: 0.50

Recorded result, CO/N=C(\C(=O)N[C@@H]1C(=O)N2C(C(=O)[O-])=C(C[n+]3ccn4c(SCCO)ccc4c3)CS[C@H]12)c1nc(N)sc1Cl [Ex. 52] , log10 MIC: -0.11

Recorded result, CON=C(C(=O)NC1C(=O)N2C(C(=O)[O-])=C(C[n+]3ccn4c(C(C)O)ccc4c3)CSC12)c1csc(N)n1 (centres unmarked) [Ex. 20] , log10 MIC: 0.19

Recorded result, CON=C(C(=O)NC1C(=O)N2C(C(=O)[O-])=C(C[n+]3ccn4c(Cl)ccc4c3)CSC12)c1csc(N)n1 (centres unmarked) [Ex. 11] , log10 MIC: -0.11

Recorded result, Nc1nc(C(=NOCCF)C(=O)NC2C(=O)N3C(C(=O)[O-])=C(C[n+]4ccn5cccc5c4)CSC23)cs1 (centres unmarked) [Ex. 5] , log10 MIC: -0.70

Recorded result, CON=C(C(=O)NC1C(=O)N2C(C(=O)[O-])=C(C[n+]3ccn4c(C=O)ccc4c3)CSC12)c1csc(N)n1 (centres unmarked) [Ex. 25] , log10 MIC: 0.19

Recorded result, CCON=C(C(=O)NC1C(=O)N2C(C(=O)[O-])=C(C[n+]3ccn4c(SCCO)ccc4c3)CSC12)c1csc(N)n1 (centres unmarked) [Ex. 9] , log10 MIC: -0.11

Recorded result, CO/N=C(\C(=O)N[C@@H]1C(=O)N2C(C(=O)O)=C(COC(C)=O)CS[C@H]12)c1csc(N)n1 [CTX, Cefotaxime, reference compound] , log10 MIC: 0.19

Recorded result, CO/N=C(\C(=O)N[C@@H]1C(=O)N2C(C(=O)[O-])=C(C[n+]3ccn4ccc(Cl)c4c3)CS[C@H]12)c1csc(N)n1 [Ex. 33] , log10 MIC: -0.70

Recorded result, Nc1nc(C(=NOCF)C(=O)NC2C(=O)N3C(C(=O)[O-])=C(C[n+]4ccn5cccc5c4)CSC23)cs1 (centres unmarked) [Ex. 6] , log10 MIC: -0.11

Recorded result, CCON=C(C(=O)NC1C(=O)N2C(C(=O)[O-])=C(C[n+]3ccn4c(Cl)ccc4c3)CSC12)c1csc(N)n1 (centres unmarked) [Ex. 12] , log10 MIC: -0.11

Recorded result, Nc1nc(/C(=N\O)C(=O)N[C@@H]2C(=O)N3C(C(=O)[O-])=C(C[n+]4ccn5cccc5c4)CS[C@H]23)cs1 [Ex. 7] , log10 MIC: -0.41

Recorded result, CO/N=C(\C(=O)N[C@@H]1C(=O)N2C(C(=O)[O-])=C(C[n+]3ccn4c(CO)ccc4c3C)CS[C@H]12)c1csc(N)n1 [Ex. 46] , log10 MIC: 0.19
